Target: T1, rhesus monkey transferrin receptor (rhTfR) fused to EGFP, on CHO cells (rhesus monkey)
T1 construct: whole, on cells; also called rhesus monkey TfR
Assay: apparent Kd, flow cytometry, CHO cells
In this section we review reported Kd values for a set of binders.
parameter: Kd (nM)

1. B8^V18 (VHH) VHH: EVQLVESGGGVVQPGGSLRLSCAASGEIHSINFMRWYRQAPGKQREWVAGFTRDGSTNYPDSAKGRFTISRDNAKNTVYLQIDSLKPEDTAVYYCYMLDTWGQGTQVTVSS    1.6
2. C5^h18 (VHH) VHH: EVQLVESGGGVVQPGGSLKLSCVASGTDFSINFIRWYRQAPGKGLEFVAGFTATGNTNYADSVKGRFTISRDNAKNTLYLQMNSLRPEDTAVYYCYMLDKWGQGTQVTVSS    957
